tgt: HeLa cell extract proteins (Homo sapiens, UniProt P43686)
Construct: endogenous in cells; host or cells: HeLa cell extract
Sequence (P43686 whole entry): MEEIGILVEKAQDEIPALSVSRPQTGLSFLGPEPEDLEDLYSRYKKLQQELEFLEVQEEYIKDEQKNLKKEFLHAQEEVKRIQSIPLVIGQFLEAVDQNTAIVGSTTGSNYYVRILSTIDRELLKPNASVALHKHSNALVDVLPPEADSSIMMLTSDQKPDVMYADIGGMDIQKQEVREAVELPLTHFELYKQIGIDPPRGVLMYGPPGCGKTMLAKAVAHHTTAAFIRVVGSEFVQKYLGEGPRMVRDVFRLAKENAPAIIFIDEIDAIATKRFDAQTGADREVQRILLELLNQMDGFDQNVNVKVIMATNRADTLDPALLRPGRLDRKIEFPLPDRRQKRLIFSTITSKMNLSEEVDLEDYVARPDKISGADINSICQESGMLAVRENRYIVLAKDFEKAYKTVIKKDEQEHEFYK
Format: binding
condition.info: protein PSMC4; HeLa
assay.metric: fold changes relative to vehicle control

[[record]]
compound = "CCCCCCOc1cccc(Cc2cnc(N)nc2N)c1"
assay_metric = "fold changes relative to vehicle control"
endpoint_result = 1.33

[[record]]
compound = "NCCCNc1ccc(C(=O)NC(CCC(=O)O)C(=O)O)cc1 (stereo not drawn)"
assay_metric = "fold changes relative to vehicle control"
endpoint_result = 0.98

[[record]]
compound = "Nc1nc2c(c(=O)[nH]1)N(C=O)C(CNc1ccc(C(=O)N[C@@H](CCC(=O)O)C(=O)O)cc1)CN2 (stereo partly drawn)"
assay_metric = "fold changes relative to vehicle control"
endpoint_result = 0.97

[[record]]
compound = "CCCCCCOc1ccc(Cc2cnc(N)nc2N)cc1"
assay_metric = "fold changes relative to vehicle control"
endpoint_result = 1.13

[[record]]
compound = "Nc1nc2cccc(-c3ccccc3)c2n1Cc1ccc(Cl)c(Cl)c1"
assay_metric = "fold changes relative to vehicle control"
endpoint_result = 1.04

[[record]]
compound = "NCCOCCOCC(=O)Nc1nc2ncc(CNc3ccc(C(=O)NC(CCC(=O)O)C(=O)O)cc3)nc2c(=O)[nH]1 (stereo not drawn)"
assay_metric = "fold changes relative to vehicle control"
endpoint_result = 1.13


###

tgt: HeLa cell extract proteins (Homo sapiens)
Construct: endogenous in cells; host or cells: HeLa cell extract
Type: binding
condition.info: protein STRAP; HeLa
assay.metric: fold changes relative to vehicle control

[[record]]
compound = "NCCOCCOCC(=O)Nc1nc2ncc(CNc3ccc(C(=O)NC(CCC(=O)O)C(=O)O)cc3)nc2c(=O)[nH]1 (stereo not drawn)"
endpoint_result = 1.08

[[record]]
compound = "NCCCNc1ccc(C(=O)NC(CCC(=O)O)C(=O)O)cc1 (stereo not drawn)"
endpoint_result = 0.86

[[record]]
compound = "Nc1nc2cccc(-c3ccccc3)c2n1Cc1ccc(Cl)c(Cl)c1"
endpoint_result = 1.11

[[record]]
compound = "CCCCCCOc1cccc(Cc2cnc(N)nc2N)c1"
endpoint_result = 1.28

[[record]]
compound = "CCCCCCOc1ccc(Cc2cnc(N)nc2N)cc1"
endpoint_result = 1.07

[[record]]
compound = "Nc1nc2c(c(=O)[nH]1)N(C=O)C(CNc1ccc(C(=O)N[C@@H](CCC(=O)O)C(=O)O)cc1)CN2 (stereo partly drawn)"
endpoint_result = 0.85


###

System: L. major lysate proteins
protocol.summary: Multitargeted bead mixture chemoproteomics, single concentration competition, proteome-wide
Format: binding
condition.info: protein LMJF.10.0310 PROTEIN TRANSPORT PROTEIN SEC23, PUTATIVE
assay.metric: fold change vs vehicle control

[[record]]
compound = "NCCOCCOCC(=O)Nc1nc2ncc(CNc3ccc(C(=O)NC(CCC(=O)O)C(=O)O)cc3)nc2c(=O)[nH]1 (stereo not shown)"
endpoint_result = 0.91

[[record]]
compound = "NCCCNc1ccc(C(=O)NC(CCC(=O)O)C(=O)O)cc1 (stereo not shown)"
endpoint_result = 1.31

[[record]]
compound = "Nc1nc2c(c(=O)[nH]1)N(C=O)C(CNc1ccc(C(=O)N[C@@H](CCC(=O)O)C(=O)O)cc1)CN2 (stereo partly shown)"
endpoint_result = 1.08

[[record]]
compound = "Nc1nc2[nH]cc(CCc3ccc(C(=O)N[C@@H](CCC(=O)O)C(=O)O)cc3)c2c(=O)[nH]1"
endpoint_result = 1.04


Data provenance is paper PMC6199744.
